Target: GSK3α (Homo sapiens, UniProt P49840)
Sequence (P49840 whole entry): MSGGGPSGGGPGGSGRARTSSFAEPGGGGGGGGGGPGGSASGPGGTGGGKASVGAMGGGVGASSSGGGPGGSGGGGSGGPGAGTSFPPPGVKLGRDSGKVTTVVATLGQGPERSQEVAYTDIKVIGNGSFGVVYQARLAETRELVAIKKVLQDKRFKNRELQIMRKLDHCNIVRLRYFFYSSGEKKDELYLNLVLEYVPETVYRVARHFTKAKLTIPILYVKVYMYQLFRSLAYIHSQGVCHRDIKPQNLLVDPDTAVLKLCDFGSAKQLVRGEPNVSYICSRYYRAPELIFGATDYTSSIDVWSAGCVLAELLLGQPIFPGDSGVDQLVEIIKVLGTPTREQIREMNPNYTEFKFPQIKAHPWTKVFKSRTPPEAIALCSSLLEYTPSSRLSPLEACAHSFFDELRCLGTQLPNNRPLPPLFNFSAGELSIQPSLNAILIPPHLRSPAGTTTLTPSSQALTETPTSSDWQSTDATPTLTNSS
Experiment: GSK 3α enzyme inhibition (FRET), Method 1
Format: biochemical
Conditions: Table 4a1
pIC50: −log10 of the molar value.
Please note: Condition met applies when pIC50 is 6 or greater, and Condition not met applies otherwise.

COc1cc(C(=O)NCCN(C)C)ccc1Nc1nccc(Oc2ccc(NC(=O)Nc3cc(C(C)C)nn3-c3ccc(C)cc3)c3ccccc23)n1 Condition not met
COc1cc(Nc2nccc(Oc3ccc(NC(=O)Nc4cc(C5(C)CC5)nn4-c4ccc(C)cc4)c4ccccc34)n2)cc(C(=O)NCCN2CCOCC2)c1 Condition not met
Cc1ccc(-n2nc(C(C)(C)C)cc2NC(=O)Nc2ccc(Oc3ccnc(Nc4cccc(C(=O)N(C)C)c4)n3)c3ccccc23)cc1 Condition met
COc1ccc(-n2nc(C(C)C)cc2NC(=O)Nc2ccc(Oc3ccnc(Nc4cc(OC)cc(C(=O)NCCN(C)C)c4)n3)c3ccccc23)cc1 Condition met
COc1ccc(-n2nc(C(C)C)cc2NC(=O)Nc2ccc(Oc3ccnc(Nc4cc(OC)cc(C(=O)NCCO)c4)n3)c3ccccc23)cc1 Condition not met
CCc1cc(NC(=O)Nc2ccc(Oc3ccnc(Nc4cc(OC)cc(C(=O)NCCN5CCOCC5)c4)n3)c3ccccc23)n(-c2ccc(C)cc2)n1 Condition not met
COc1ccc(C(=O)NCCN(C)C)cc1Nc1nccc(Oc2ccc(NC(=O)Nc3cc(C(C)(C)C)nn3-c3ccc(C)cc3)c3ccccc23)n1 Condition not met
Cc1ccc(-n2nc(C(C)C)cc2NC(=O)Nc2ccc(Oc3ccnc(Nc4cc(C)cc(C(=O)NCCN5CCOCC5)c4)n3)c3ccccc23)cc1 Condition not met
COc1cc(Nc2nccc(Oc3ccc(NC(=O)Nc4cc(C(C)C)nn4-c4ccc(C)cc4)c4ccccc34)n2)cc(C(=O)N(C)CCN2CCOCC2)c1 Condition met

* * *

Target: CYP2C9 (Homo sapiens)
Sequence (P11712 whole entry): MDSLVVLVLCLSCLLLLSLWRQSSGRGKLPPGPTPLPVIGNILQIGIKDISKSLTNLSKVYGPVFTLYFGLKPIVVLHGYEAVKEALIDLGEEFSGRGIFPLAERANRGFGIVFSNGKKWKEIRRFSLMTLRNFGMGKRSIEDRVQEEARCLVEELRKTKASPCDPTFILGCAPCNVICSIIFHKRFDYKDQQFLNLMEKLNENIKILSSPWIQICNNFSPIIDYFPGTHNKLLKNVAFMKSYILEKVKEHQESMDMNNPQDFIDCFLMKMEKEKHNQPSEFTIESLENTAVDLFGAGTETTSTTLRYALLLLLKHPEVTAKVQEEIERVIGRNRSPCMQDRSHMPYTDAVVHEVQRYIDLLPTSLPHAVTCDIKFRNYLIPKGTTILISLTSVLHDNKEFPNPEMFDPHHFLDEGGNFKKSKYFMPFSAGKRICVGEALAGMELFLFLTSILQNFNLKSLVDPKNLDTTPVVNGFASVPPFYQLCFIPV
Assay: Time-dependent inhibition of cytochromes (CYP450 TDI)
Assay type: in vitro ADME
Conditions: human, pooled human liver microsomes, pH 7.4, probe diclofenac, CYP2C9 (diclofenac probe); 30 min preincubation; 15 μM; human hepatic microsomes; read-out: 15 μM % Inh
quantity kind: inhibition at 15 µM (%)

C#Cc1cc(Nc2nccc(Oc3ccc(NC(=O)Nc4cc(C(C)(C)C)nn4-c4ccc(OC)cc4)c4ccccc34)n2)cc(C(=O)NCCN2CCOCC2)c1 1

* * *

Molecular target: Syk (Homo sapiens, UniProt P43405)
Assay: Syk enzyme inhibition (FRET)
Assay type: biochemical
Details: Table 4a1
pIC50: −log10 of the molar value.
Reported pIC50 is given for each of the following compounds.
quantity kind: pIC50

COc1ccc(-n2nc(C(C)(C)C)cc2NC(=O)Nc2ccc(Oc3ccnc(Nc4cc(OC)cc(C(=O)NCCN5CCOCC5)c4)n3)c3ccccc23)cc1 8.30
COc1ccc(-n2nc(C(C)C)cc2NC(=O)Nc2ccc(Oc3ccnc(Nc4cc(OC)cc(C(=O)NCCO)c4)n3)c3ccccc23)cc1 7.21
COCCNC(=O)c1cc(Nc2nccc(Oc3ccc(NC(=O)Nc4cc(C(C)C)nn4-c4ccc(OC)cc4)c4ccccc34)n2)cc(OC)c1 7.12
COc1cc(Nc2cc(Oc3ccc(NC(=O)Nc4cc(C(C)C)nn4-c4ccc(C)cc4)c4ccccc34)ncn2)cc(C(=O)NCCN2CCOCC2)c1 6.26
COc1ccc(-n2nc(C(C)C)cc2NC(=O)Nc2ccc(Oc3ccnc(Nc4cc(OC)cc(C(=O)NCCN(C)C)c4)n3)c3ccccc23)cc1 8.30
COc1ccc(-n2nc(C(C)C)cc2NC(=O)Nc2ccc(Oc3ccnc(Nc4cc(C(=O)NCCN5CCOCC5)cc(C(F)(F)F)c4)n3)c3ccccc23)cc1 7.92
COCCNC(=O)c1cc(Nc2nccc(Oc3ccc(NC(=O)Nc4cc(C(C)C)nn4-c4ccc(C)cc4)c4ccccc34)n2)cc(OC)c1 6.63
COc1ccc(C(=O)NCCN2CCOCC2)cc1Nc1nccc(Oc2ccc(NC(=O)Nc3cc(C(C)(C)C)nn3-c3ccc(C)cc3)c3ccccc23)n1 7.29
COc1ccc(-n2nc(C(C)C)cc2NC(=O)Nc2ccc(Oc3ccnc(Nc4cc(OC)cc(C(=O)NCCN5CCOCC5)c4)n3)c3ccccc23)cc1 8.52
C=C(C)c1cc(NC(=O)Nc2ccc(Oc3ccnc(Nc4cc(OC)cc(C(=O)NCCN5CCOCC5)c4)n3)c3ccccc23)n(-c2ccc(OC)cc2)n1 7.70
Cc1ccc(-n2nc(C(C)(C)C)cc2NC(=O)Nc2ccc(Oc3ccnc(Nc4cc(Br)cc(C(=O)NCCN5CCOCC5)c4)n3)c3ccccc23)cc1 7.89
